Tested on: A498
Experiment: NCI tumour cell line growth inhibition, 48 h
Activity calls are given as the source filed them. Rule as the data show it: active = GI50 up to about 1.1 µM and inactive = higher.
measuredEndpoint: GI50

// worked examples, GI50 included
compound	GI50
Clc1ccc(-c2nn3c(CCCCCCCCc4nnc5sc(-c6ccc(Cl)cc6)nn45)nnc3s2)cc1	24.8 µM (inactive)
O=[N+]([O-])c1ccc(CSc2c3ccccc3nc3ccccc23)cc1	23.7 µM (inactive)
NC(=O)C(=Cn1c(=S)[nH]c2ccc([N+](=O)[O-])cc21)C(N)=O	> 100 µM (inactive)
COC(=O)c1ccc(OCc2ccc3nc(-c4ccccc4)c(Cl)nc3c2)cc1	> 100 µM (inactive)
CN1C(=O)CC(CC(=O)C2CCCCC2=O)CC1=O (stereo not given)	> 100 µM (inactive)
CCOC(=O)NC(Nc1cc(Cl)ccc1OC)(C(F)(F)F)C(F)(F)F	> 100 µM (inactive)
CC1C=C(CCCCCCCCCCCC[C@@H](O)[C@@H]2CC[C@@H]([C@@H]3CC[C@@H](C(O)CCCCCCCCCCCCC4=C[C@H](C)OC4=O)O3)O2)C(=O)O1 (stereo not given in full)	75.7 µM (inactive)
NC(=O)c1ccc(Cl)c([N+](=O)[O-])c1	> 100 µM (inactive)
N=C(N)n1ncc(Cl)c(Cl)c1=O	18.6 µM (inactive)

// below: GI50 requested for another compound
The compound identified as CCCO/N=[N+](\[O-])N(CC)CC registered its GI50 at > 100 µM (inactive)
